Source listed as the supplement of paper PMC9233669.

System: biotinyl-Met-oxazolone
Test: self-aminoacylation, catalytic enhancement (BMO) (fold over background); higher = more active; k-Seq, kA / k0A0; sequences stand for … in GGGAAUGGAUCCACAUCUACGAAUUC…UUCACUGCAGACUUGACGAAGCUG
Variants at the floor of the assay were thinned out.
value.type: self-aminoacylation
Respond using a number only.

// known answers, use as guide
residue.codes	self-aminoacylation
AUUCAGCUAUGUCAUCGGGUG [Fam2.2 aminoacylation ribozyme variant]	3.17
AAUCACCUAGGUCAUCCGGUG [Fam2.2 aminoacylation ribozyme variant]	5.22
CUACUUCAAACAAUCGCUCUC [Fam1A.1 aminoacylation ribozyme variant]	0.384
ACACACUGCAAGCAAUCGGUC [Fam1B.1 aminoacylation ribozyme variant]	1.23
CUACAUCAAACAACCGGUCUG [Fam1A.1 aminoacylation ribozyme variant]	1.31
AUUACCCUGGUCAUCUAAUGA [Fam2.1 aminoacylation ribozyme variant]	1.06

Q: Name the reported self-aminoacylation value associated with the sequence CGACACUUCGAGCAAUCGGUC [Fam1B.1 aminoacylation ribozyme variant]
Result: 1.28

Q: Name the reported self-aminoacylation value associated with the sequence AAGUCUGCUAACAGUCGCAAG [Fam3.1 aminoacylation ribozyme variant]
Result: 2.09

Q: Name the reported self-aminoacylation value associated with the sequence CUACUUCAAACAAUCGCUCUA [Fam1A.1 aminoacylation ribozyme variant]
Result: 1.05

Q: Name the reported self-aminoacylation value associated with the sequence AUUUUCCUAGGUCAUCGGGUG [Fam2.2 aminoacylation ribozyme variant]
Result: 6.79

Q: Name the reported self-aminoacylation value associated with the sequence GUUACCCUGGCCAUCGAGUGA [Fam2.1 aminoacylation ribozyme variant]
Result: 6.73

Q: Name the reported self-aminoacylation value associated with the sequence AUUACGCUGGUCAGCGAGUGA [Fam2.1 aminoacylation ribozyme variant]
Result: 4.57

Q: Name the reported self-aminoacylation value associated with the sequence CUACUUCAAGCAAUCGGUUUG [Fam1A.1 aminoacylation ribozyme variant]
Result: 0.981

Q: Name the reported self-aminoacylation value associated with the sequence CGACUUCAAACAAUCGCUCUG [Fam1A.1 aminoacylation ribozyme variant]
Result: 1.36

Q: Name the reported self-aminoacylation value associated with the sequence CUUCACCUAGGUCAACGGGUG [Fam2.2 aminoacylation ribozyme variant]
Result: 2.28

Q: Name the reported self-aminoacylation value associated with the sequence CCACACUUCAAGCAAACGGUU [Fam1B.1 aminoacylation ribozyme variant]
Result: 1.25

Q: Name the reported self-aminoacylation value associated with the sequence AAGUGUGCUAAUAGUCGCAAG [Fam3.1 aminoacylation ribozyme variant]
Result: 1.69

Q: Name the reported self-aminoacylation value associated with the sequence CCACACUUCAAGCAUUCGAUC [Fam1B.1 aminoacylation ribozyme variant]
Result: 0.629

Q: Name the reported self-aminoacylation value associated with the sequence AUUACCCUCGUCAACGAGUGA [Fam2.1 aminoacylation ribozyme variant]
Result: 3.05

Q: Name the reported self-aminoacylation value associated with the sequence AUUUCCCUGGUCAACGAGUGA [Fam2.1 aminoacylation ribozyme variant]
Result: 6.93

Q: Name the reported self-aminoacylation value associated with the sequence CUAAUUCACACAAUCGGUCUG [Fam1A.1 aminoacylation ribozyme variant]
Result: 0.874

Q: Name the reported self-aminoacylation value associated with the sequence AAUUUUGCUAAUAGUCGGAAG [Fam3.1 aminoacylation ribozyme variant]
Result: 1.13

Q: Name the reported self-aminoacylation value associated with the sequence AUUACCCGGGACAUCGAGUGA [Fam2.1 aminoacylation ribozyme variant]
Result: 10.5

Q: Name the reported self-aminoacylation value associated with the sequence AGUAACCUAGGUCAUCGGGUG [Fam2.2 aminoacylation ribozyme variant]
Result: 5.37

Q: Name the reported self-aminoacylation value associated with the sequence AUUCCCCUAGGUCAUGGGGUG [Fam2.2 aminoacylation ribozyme variant]
Result: 19
